- target.under.test: T1, mono-SUMO2 (UniProt P61956 12-93)
- T1 construct: SUMO2-ΔN11 monomer (first 11 residues missing) ending with the C-terminal GG motif and a stop codon; The methods describe the monomers from the pGEX-4T2 plasmids as ΔN11; also called SUMO2-ΔN11 monomer; source: E. coli Rosetta 2(DE3)pLysS, purified (glutathione beads, thrombin cleavage, anion exchange, SEC)
- experiment.summary: ITC; VP-ITC or ITC200; 25°C; ITC buffer (50 mM Tris/HCl, pH 7.5, 150 mM NaCl, 2 mM DTT, 5% glycerol); SUMOs titrated into a solution of the RNF4 construct or peptide (legends of Figures 1B, 2B); 20–30 injections up to 2–3-fold molar excess; values averaged from two to six titrations
- condition.summary: both partners purified
parameter.measured: pKd
One number for each entry, as −log10 of the molar value.

Notebook: KVEVIDLTIDSSSDEEEEEP (exact peptide ends are only in Figure 2A; limits set around the VIDLT core plus C-terminal acidic flank; termini unknown) [single PIAS1 peptide] , pKd read as 4.80
